Form field: Reactivity (OD 492 nm) (one value per entry).
Target: T1, HCV bt-141-161 (Peptide 2, HCVc 141-161) (Hepatitis C virus (numbering per HCV-1), biotin (carboxy-terminal per; N-terminal per))
T1 peptide: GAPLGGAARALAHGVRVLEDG
Assay: EIA, captured mAb + biotin peptide
Property Label: Reactivity (OD 492 nm) (OD units)

{"Binder": "HCV 208B-281 (antibody, V domains shown) VH: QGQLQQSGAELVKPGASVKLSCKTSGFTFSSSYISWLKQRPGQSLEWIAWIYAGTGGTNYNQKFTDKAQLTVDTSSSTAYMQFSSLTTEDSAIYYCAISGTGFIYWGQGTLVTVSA VL: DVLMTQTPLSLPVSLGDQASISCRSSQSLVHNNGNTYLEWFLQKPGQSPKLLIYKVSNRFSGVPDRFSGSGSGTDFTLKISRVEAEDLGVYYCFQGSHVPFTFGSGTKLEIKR", "Value Reported": 0.16}
{"Binder": "HCV 208B-178 (antibody, V domains shown) VH: DVKLVESGGGLVKLGGSLKLSCAASGFTFSSYYMSWVRQTPEKRLELVAAINSNGGSTYYPDTVKGRFTISRDNAKNTLYLQMSSLKSEDTALYYCARHGGLGRRDWYFDVWGAGTTVTVSS VL: DIVLTQSPASLAVSLGQRATISCRASESVDNYGISFMHWYQQKPGQPPKLLIYRASNLESGIPARFSGSGSRTDFTLTINPVETDDVATYYCQQSNKDPFTFGSGAKLEIKR", "Value Reported": 0.07}
{"Binder": "HCV 208A-352 (antibody, V domains shown) VH: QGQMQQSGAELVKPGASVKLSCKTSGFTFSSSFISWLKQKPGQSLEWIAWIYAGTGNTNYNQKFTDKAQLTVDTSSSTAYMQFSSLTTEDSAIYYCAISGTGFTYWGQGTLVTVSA VL: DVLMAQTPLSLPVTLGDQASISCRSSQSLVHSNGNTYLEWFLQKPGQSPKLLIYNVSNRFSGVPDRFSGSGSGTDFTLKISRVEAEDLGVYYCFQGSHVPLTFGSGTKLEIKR", "Value Reported": 0.07}
{"Binder": "HCV 208B-517 (antibody, V domains shown) VH: QVQLKQSGPGLVQPSQSLSITCTVSGFSLITHGVHWVRQSPGKGLEWLGVIWSGGSTDYNAAFISRLSISKDTSKSQVFLKMSSLQADDTAIYYCARNGGATAFDYWGQGTTLTVSS VL: DIVMTQSPATLSVTPGDRVSLSCRASQSISDYLHWYQQKSHESPRLLIKYASQSISGIPSRFRGSGSGSHFTLSINSVEPEDVGVYYCQNGHSFPWTFGGGTKLEIKR", "Value Reported": 0.41}
